- Test protocol: in vivo
- Condition summary: rat, in vivo, iv
Recorded endpoint: half-life

compound="CSCC[C@H](NC(=O)[C@@H]1CCCN1C(=O)CNC(=O)[C@H](CCCCN)NC(=O)[C@H](Cc1cnc[nH]1)NC(=O)[C@H](CO)NC(=O)[C@H](CC(C)C)NC(=O)[C@H](CCCNC(=N)N)NC(=O)[C@@H]1CCCN1C(=O)[C@H](CCCNC(=N)N)NC(=O)[C@H](CCC(N)=O)NC(=O)[C@H](CCCNC(=N)N)NC(=O)[C@H](CCCNC(=N)N)NC(=O)[C@H](Cc1ccccc1)NC(=O)[C@@H](N)CCCCN)C(=O)N1CCC[C@H]1C(=O)N[C@@H](Cc1ccccc1)C(=O)O [K17F, reference compound]" recorded_endpoint=half-life endpoint_value="50 s"
